System: Staphylococcus aureus
Assay: Antibacterial activity against methicillin-resistant Staphylococcus aureus by CLSI M100-S19 method
Assay type: functional
measurement-type: MIC (µg/mL)
Your answer is read as µg/mL, so omit the unit and give the number.

Please give the measured MIC for this compound: `CNC(=O)C[C@@H]1NC(=O)c2csc(n2)-c2ccc(-c3nc(NC(C)=O)cs3)nc2-c2csc(n2)-c2csc(n2)[C@H]([C@@H](O)c2ccccc2)NC(=O)CNC(=O)c2nc(sc2COC)[C@H](C(C)C)NC(=O)c2nc1sc2C`
2

Try the compound `CNC(=O)C[C@@H]1NC(=O)c2csc(n2)-c2ccc(-c3nc(NS(C)(=O)=O)cs3)nc2-c2csc(n2)-c2csc(n2)[C@H]([C@@H](O)c2ccccc2)NC(=O)CNC(=O)c2nc(sc2COC)[C@H](C(C)C)NC(=O)c2nc1sc2C`
2

Try the compound `CNC(=O)C[C@@H]1NC(=O)c2csc(n2)-c2ccc(-c3nc(C4=N[C@H](C(=O)N5CCC[C@H]5C(N)=O)CO4)cs3)nc2-c2csc(n2)-c2csc(n2)[C@H]([C@@H](O)c2ccccc2)NC(=O)CNC(=O)c2nc(sc2COC)[C@H](C(C)C)NC(=O)c2nc1sc2C`
0.25
